Data provenance is PubChem BioAssay (NCATS).

assay: qHTS for differential inhibitors of proliferation of Plasmodium falciparum line 7G8 (AID 1815); conditions: Plasmodium falciparum 7G8 proliferation inhibition; series mostly up to 28.7 µM;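 also: parasite growth measured after three days of incubation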
Results filed as inconclusive are left out. Activity calls are given as the source filed them. Calls follow the shape of the dose curve; as a rule, active = well fitted curve in the direction sought with a large enough effect; inconclusive = small, poorly fitted or top-dose-only effect, or another doubt; inactive = no such curve, though single readings can be large or run the other way.
Possible outcomes: YES for active, NO for inactive

{"compound": "Oc1cc(O)c2c(c1)O[C@H](c1ccc(O)c(O)c1)[C@@H](O)C2", "cat": "NO"}
{"compound": "Cc1nc(N=Nc2ccc(S(=O)(=O)O)cc2S(=O)(=O)O)c(COP(=O)(O)O)c(C=O)c1O", "cat": "NO"}
{"compound": "COc1cc(CC(=O)O)ccc1O", "cat": "NO"}
{"compound": "CCC1(O)CC2CN(CCc3c([nH]c4ccccc34)[C@@](C(=O)OC)(c3cc4c(cc3OC)N(C)C3[C@]45CCN4CC=C[C@@](CC)([C@@H](OC(C)=O)[C@]3(O)C(=O)OC)[C@H]45)C2)C1 (some centres undefined)", "cat": "YES"}
{"compound": "Cc1ccccc1/C=C/C1=NCCN1", "cat": "YES"}
{"compound": "CC(C)(C)c1cc(/C=C(\\C#N)C(N)=S)cc(C(C)(C)C)c1O", "cat": "YES"}
{"compound": "NC1(C(=O)O)CCCCC1", "cat": "NO"}
{"compound": "CNc1cc(NS(=O)(=O)c2ccc(N)cc2)nc(NC)n1", "cat": "NO"}
{"compound": "NCCNS(=O)(=O)c1cccc2c(Cl)cccc12", "cat": "YES"}
{"compound": "Cn1c(=O)[nH]c2ncn(C)c2c1=O", "cat": "NO"}
{"compound": "CCCCCCC/C=C\\CCCCCCCCC(=O)O", "cat": "NO"}
{"compound": "O=C(O)C1=CCNCC1", "cat": "NO"}
{"compound": "CC(C)NC[C@H](O)COc1ccc(CC(N)=O)cc1", "cat": "NO"}
{"compound": "Nc1ncnc2c1ncn2C1CCCC1", "cat": "NO"}
{"compound": "COc1cc(C(O)CO)ccc1O (centres undefined)", "cat": "NO"}
{"compound": "NCC(O)(CS(=O)(=O)O)c1ccc(Cl)cc1 (centres undefined)", "cat": "NO"}
{"compound": "C[N+](C)(C)CC=O", "cat": "NO"}
{"compound": "CCN(CC)CCOC(=O)c1cc(Cl)c(N)cc1OC", "cat": "NO"}
{"compound": "c1ccc(C2CN3CCSC3=N2)cc1 (centres undefined)", "cat": "NO"}
{"compound": "N[C@@H](Cc1c[nH]c2ccccc12)C(=O)O", "cat": "YES"}
{"compound": "COc1ccccc1N1CCN(CCCCNC(=O)c2ccc3ccccc3c2)CC1", "cat": "YES"}
{"compound": "O=C(O)C1=CCCNC1", "cat": "NO"}
{"compound": "N[C@H]1CONC1=O", "cat": "NO"}
{"compound": "NC(=O)CNCCC(c1ccccc1)c1ccccc1", "cat": "YES"}
